Test system: rat small-intestinal brush border membrane vesicles
test_method_notes: Inhibitory effect on 33PO4 uptake into rat small-intestinal brush border membrane vesicles (rapid filtration method)
Format: biochemical, Wistar female rat
setup_conditions: 1 µM test compound; 33PO4 uptake into rat small-intestinal BBMVs, 60 seconds
just bin them by Rate of uptake inhibition (%) (1 µM): low (below 40%), moderate (40% to below 70%), high (70% or more)

Exercise: read the entry `CN1N(Cc2ccc(OCCCOC[C@H](O)CO)c(F)c2F)C(=O)C(C(=O)Nc2ccc(C(F)(F)F)cc2-c2cc(C(F)(F)F)ncn2)=C(O)C12CCCC2` and state which class it falls under.
moderate

For the record `CN1[C@@H](C(C)(C)C)C(O)=C(C(=O)Nc2ccc(Br)c(C(F)(F)F)c2)C(=O)N1Cc1cccc(F)c1F` , report the class its Rate of uptake inhibition (%) (1 µM) corresponds to.
moderate

Which of the defined bands does the recorded Rate of uptake inhibition (%) (1 µM) of `C[C@]12CCCN1N(Cc1ccc(CN3CCOCC3)c(F)c1F)C(=O)C(C(=O)Nc1ccc(C(F)(F)F)cc1-c1ccc(C(F)(F)F)nc1)=C2O.Cl` sit within?
moderate

Please let me know in which category the item `COc1cccc(-c2cc(C(F)(F)F)ccc2NC(=O)C2=C(O)[C@@]3(C)CCCN3N(Cc3ccc(OC[C@H]4CCCO4)c(F)c3F)C2=O)c1OC` belongs.
high

Please indicate the class for `Cc1c(Cl)ncnc1-c1cc(Cl)ccc1NC(=O)C1=C(O)[C@H](C(C)(C)C)N(C)N(Cc2ccc(OCCN3CCOCC3)c(F)c2F)C1=O` based on its Rate of uptake inhibition (%) (1 µM).
moderate

Kindly state the category for this compound: `C[C@@]12CCCN1N(Cc1ccc(OCCN3CCOCC3)c(F)c1F)C(=O)C(C(=O)Nc1ccc(C(F)(F)F)cc1-c1cc(C(F)(F)F)ncn1)=C2O.Cl`
moderate

Exam item: assign `CN1N(Cc2ccc(OCCN3CCOCC3(C)C)c(F)c2F)C(=O)C(C(=O)Nc2ccc(C(F)(F)F)cc2-c2cc(C(F)(F)F)ncn2)=C(O)C12CCCC2` to the correct category.
low

Into which category would you place `COCCN1CC[C@@H](Oc2ccc(CN3C(=O)C(C(=O)Nc4ccc(C(F)(F)F)cc4-c4cc(C(F)(F)F)ncn4)=C(O)C4(CCC4)N3C)c(F)c2F)C1` ?
low

Which class is correct for the following compound? `COC(=O)CN(C)CCOc1ccc(CN2C(=O)C(C(=O)Nc3ccc(C(F)(F)F)cc3-c3cc(C(F)(F)F)ncn3)=C(O)C3(CCCC3)N2C)c(F)c1F`
low

For `C[C@]12CCCN1N(Cc1cccc(Cl)c1)C(=O)C(C(=O)Nc1ccc(C(F)(F)F)cc1-c1cc(C(F)(F)F)ncn1)=C2O` , which Rate of uptake inhibition (%) (1 µM) bin applies?
high

Hello team, could you let me know which band the following compound falls into: `CC(=O)N(C)CCN(C)CCOc1ccc(CN2C(=O)C(C(=O)Nc3ccc(C(F)(F)F)cc3-c3cc(C(F)(F)F)ncn3)=C(O)C3(CCC3)N2C)c(F)c1F`
low

Could you place `C[C@]12CCCN1N(Cc1ccc(F)c(F)c1)C(=O)C(C(=O)Nc1cc(F)c(Br)c(F)c1)=C2O` in its proper category? Many thanks.
high

Class (by measured Rate of uptake inhibition (%) (1 µM)) for `CN1N(Cc2cccc(F)c2F)C(=O)C(C(=O)Nc2ccc(Cl)cc2-c2ccc(C(F)(F)F)nc2)=C(O)C12CCC2`
high

Form field 'band' for `COCCN(C)CCN(c1ccc(CN2C(=O)C(C(=O)Nc3ccc(C(F)(F)F)cc3-c3cc(C(F)(F)F)ncn3)=C(O)C3(CCCC3)N2C)c(F)c1F)C(C)C`
low

Dear colleague, I would appreciate it if you could identify the bin for `C[C@]12CCCN1N(CCCC(F)(F)F)C(=O)C(C(=O)Nc1ccc(C(F)(F)F)cc1-c1cc(C(F)(F)F)ncn1)=C2O` and reply at your convenience.
high

Exercise: read the entry `CC(C)[C@H]1C(O)=C(C(=O)Nc2ccc(C(F)(F)F)cc2-c2ccc(C(F)(F)F)nc2)C(=O)N(Cc2ccc(OCCN3CCOCC3)c(F)c2F)N1C` and state which class it falls under.
moderate
